Recorded values, source the supplement of paper PMC5998384.

tested on: HeLa Kyoto; test: solubility in G1/S (NP-40 vs SDS abundance) (log2 ratio); higher = more soluble; details: cell cycle stage: G1/S;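 note: HeLa Kyoto cells arrested at G1/S by double thymidine block, proteins quantified by TMT10plex mass spectrometry in mild NP-40 versus SDS extracts, three biological replicates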
measuredQuantity: solubility in G1/S (log2)

>  <sequenceData>
MMRFMLLFSRQGKLRLQKWYLATSDKERKKMVRELMQVVLARKPKMCSFLEWRDLKVVYKRYASLYFCCAIEGQDNELITLELIHRYVELLDKYFGSVCELDIIFNFEKAYFILDEFLMGGDVQDTSKKSVLKAIEQADLLQEEDESPRSVLEEMGLA [AP1S1]

>  <resultNumber>
-0.154

$$$$
>  <sequenceData>
MAGVRSLRCSRGCAGGCECGDKGKCSDSSLLGKRLSEDSSRHQLLQKWASMWSSMSEDASVADMERAQLEEEAAAAEERPLVFLCSGCRRPLGDSLSWVASQEDTNCILLRCVSCNVSVDKEQKLSKREKENGCVLETLCCAGCSLNLGYVYRCTPKNLDYKRDLFCLSVEAIESYVLGSSEKQIVSEDKELFNLESRVEIEKSLTQMEDVLKALQMKLWEAESKLSFATCKS [MIS18A]

>  <resultNumber>
-0.162

$$$$
>  <sequenceData>
MGLLDLCEEVFGTADLYRVLGVRREASDGEVRRGYHKVSLQVHPDRVGEGDKEDATRRFQILGKVYSVLSDREQRAVYDEQGTVDEDSPVLTQDRDWEAYWRLLFKKISLEDIQAFEKTYKGSEEELADIKQAYLDFKGDMDQIMESVLCVQYTEEPRIRNIIQQAIDAGEVPSYNAFVKESKQKMNARKRRAQEEAKEAEMSRKELGLDEGVDSLKAAIQSRQKDRQKEMDNFLAQMEAKYCKSSKGGGKKSALKKEKK [DNAJC9]

>  <resultNumber>
0.502

$$$$
>  <sequenceData>
MGRAVKVLQLFKTLHRTRQQVFKNDARALEAARIKINEEFKNNKSETSSKKIEELMKIGSDVELLLRTSVIQGIHTDHNTLKLVPRKDLLVENVPYCDAPTQKQ [LYRM7]

>  <resultNumber>
0.581

$$$$
